TARGET OR SYSTEM: GlcNAc(b1-2)[GlcNAc(b1-4)]Man(a1-3)[GlcNAc(b1-2)Man(a1-6)]Man(b1-4)GlcNAc(b1-4)GlcNAc
EXPERIMENTAL PROTOCOL: glycan array binding signal (z-score within array); higher = stronger binding
MEASUREMENT CONTEXT: glycan notation: IUPAC condensed, linker removed
Many of the other results were omitted from the sample, so the strongest signals are more common in it than they were.
Recorded glycan array binding signal (z-score), one value per entry.
MEASURE: glycan array binding signal (z-score)

- SP8524D-bot-399-27-399 (Bacteroides ovatus) (protein) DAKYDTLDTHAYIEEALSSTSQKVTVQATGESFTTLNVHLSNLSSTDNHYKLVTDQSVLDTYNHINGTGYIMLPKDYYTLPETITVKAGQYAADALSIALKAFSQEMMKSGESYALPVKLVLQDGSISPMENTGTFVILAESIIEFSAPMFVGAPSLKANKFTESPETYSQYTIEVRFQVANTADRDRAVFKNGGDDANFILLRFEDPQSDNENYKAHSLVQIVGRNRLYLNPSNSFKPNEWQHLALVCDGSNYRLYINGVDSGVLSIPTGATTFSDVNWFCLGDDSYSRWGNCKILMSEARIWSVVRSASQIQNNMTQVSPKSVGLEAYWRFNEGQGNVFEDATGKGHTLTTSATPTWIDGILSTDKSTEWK: 16.1
- CVN (Nostoc ellipsosporum), P81180 (protein) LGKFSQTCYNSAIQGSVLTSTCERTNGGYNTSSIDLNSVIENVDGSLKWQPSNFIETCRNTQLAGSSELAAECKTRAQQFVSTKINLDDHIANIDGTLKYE: 0.024
